procedure_text: Retention time of the compound by HPLC method
Type: physicochemical
reported_property: Retention_time (min)

line_notation=Cc1[nH]c2ccccc2c1CCNS(=O)(=O)c1cccc(/C=C/C(=O)NO)c1 reported_property=Retention_time value_reported=23.3
line_notation=Cc1[nH]c2ccccc2c1CCN(C(C)C)S(=O)(=O)c1ccc(/C=C/C(=O)NO)cc1 reported_property=Retention_time value_reported=28.67
line_notation=CCn1c(C)c(CCNS(=O)(=O)c2ccc(/C=C/C(=O)NO)cc2)c2ccccc21 reported_property=Retention_time value_reported=27.93
line_notation=Cn1cc(CCNS(=O)(=O)c2ccc(/C=C/C(=O)NO)cc2)c2ccccc21 reported_property=Retention_time value_reported=24.21
line_notation=CCN(CCc1c(C)[nH]c2ccccc12)S(=O)(=O)c1ccc(/C=C/C(=O)NO)cc1 reported_property=Retention_time value_reported=27.17
line_notation=O=C(/C=C/c1ccc(S(=O)(=O)N2CCc3c([nH]c4ccccc34)C2)cc1)NO reported_property=Retention_time value_reported=25.18
line_notation=Cc1[nH]c2ccccc2c1CCNS(=O)(=O)c1ccc(C(=O)NO)cc1 reported_property=Retention_time value_reported=21.88
line_notation=O=C(/C=C/c1ccc(S(=O)(=O)NCCc2c[nH]c3ccccc23)cc1)NO reported_property=Retention_time value_reported=22.17
line_notation=Cc1c(CCNS(=O)(=O)c2ccc(/C=C/C(=O)NO)cc2)c2ccccc2n1C reported_property=Retention_time value_reported=25.96
line_notation=Cc1[nH]c2ccccc2c1CCNS(=O)(=O)c1ccc(/C=C/C(=O)NO)cc1 reported_property=Retention_time value_reported=23.3
